Value source: patent US8173813B2

target_or_system: Nitric oxide synthase (neuronal, human recombinant) nNOS (Homo sapiens, UniProt P29475)
Sequence (P29475 whole entry): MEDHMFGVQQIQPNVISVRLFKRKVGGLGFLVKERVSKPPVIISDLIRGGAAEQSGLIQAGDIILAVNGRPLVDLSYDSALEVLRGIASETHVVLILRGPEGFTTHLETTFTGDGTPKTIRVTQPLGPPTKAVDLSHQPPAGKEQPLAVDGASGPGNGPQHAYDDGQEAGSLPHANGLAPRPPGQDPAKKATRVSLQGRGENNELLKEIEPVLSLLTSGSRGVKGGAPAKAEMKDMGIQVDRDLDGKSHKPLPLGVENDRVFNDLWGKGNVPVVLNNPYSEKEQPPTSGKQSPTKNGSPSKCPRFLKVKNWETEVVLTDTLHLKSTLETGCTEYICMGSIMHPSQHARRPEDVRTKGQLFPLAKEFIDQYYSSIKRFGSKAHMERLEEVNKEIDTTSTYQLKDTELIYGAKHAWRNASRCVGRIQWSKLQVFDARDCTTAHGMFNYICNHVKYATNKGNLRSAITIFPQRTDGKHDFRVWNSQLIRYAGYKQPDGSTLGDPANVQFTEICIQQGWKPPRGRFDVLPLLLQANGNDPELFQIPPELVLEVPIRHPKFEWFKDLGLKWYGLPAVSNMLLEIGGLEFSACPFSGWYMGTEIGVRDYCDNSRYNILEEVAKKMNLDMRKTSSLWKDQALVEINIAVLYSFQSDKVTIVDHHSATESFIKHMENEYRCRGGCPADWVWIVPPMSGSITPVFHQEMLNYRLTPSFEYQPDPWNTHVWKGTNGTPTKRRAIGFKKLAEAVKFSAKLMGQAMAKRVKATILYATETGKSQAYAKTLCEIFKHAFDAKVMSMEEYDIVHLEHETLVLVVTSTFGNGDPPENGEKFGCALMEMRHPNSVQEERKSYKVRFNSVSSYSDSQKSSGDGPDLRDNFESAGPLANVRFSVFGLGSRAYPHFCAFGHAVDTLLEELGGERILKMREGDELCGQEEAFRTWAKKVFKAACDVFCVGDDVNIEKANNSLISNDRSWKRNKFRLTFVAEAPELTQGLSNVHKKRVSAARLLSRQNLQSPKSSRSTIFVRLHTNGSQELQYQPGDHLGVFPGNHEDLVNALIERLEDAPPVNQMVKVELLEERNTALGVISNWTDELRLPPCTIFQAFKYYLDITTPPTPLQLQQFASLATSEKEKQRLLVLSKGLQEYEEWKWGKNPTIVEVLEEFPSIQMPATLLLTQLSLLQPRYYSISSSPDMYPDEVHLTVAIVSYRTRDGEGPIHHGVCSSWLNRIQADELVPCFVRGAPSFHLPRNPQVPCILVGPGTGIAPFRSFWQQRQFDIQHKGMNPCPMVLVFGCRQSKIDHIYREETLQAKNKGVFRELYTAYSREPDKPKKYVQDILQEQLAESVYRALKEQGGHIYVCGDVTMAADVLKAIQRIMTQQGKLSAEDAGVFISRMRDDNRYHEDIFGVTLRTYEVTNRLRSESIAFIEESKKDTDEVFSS
experimental_details: Human nNOS enzyme assay ([3H]L-arginine to [3H]L-citrulline)
Assay type: biochemical
measurement_context: human enzymes; ratio of eNOS IC50 to nNOS IC50
// reported Selectivity eNOS/nNOS per item
Please give the numeric answer without any surrounding text.

Record excerpt, results attached:
>>> print(df.to_string())
                                   compound        measured_metric  reported_value
0  N=C(Nc1ccc2c(c1)CCCC(=O)N2CCN1CCCCC1)c1cccs1 [Example 38]  Selectivity eNOS/nNOS            14.8
1  N=C(Nc1ccc2c(c1)CCCN2CCN1CCOCC1)c1cccs1 [Example 64]  Selectivity eNOS/nNOS             121
2  CNC1CCC(N2CCc3cc(NC(=N)c4cccs4)ccc32)CC1 (stereo not shown) [Example 70]  Selectivity eNOS/nNOS            86.5
3  CN1CCC(C2C(=O)Nc3ccc(NC(=N)c4cccs4)cc32)CC1 (stereo not shown) [Example 31]  Selectivity eNOS/nNOS            38.3
4  Cl.Cl.N=C(Nc1ccc2c(c1)CCCN2CCN1CCCC1)c1cccs1 [Example 12]  Selectivity eNOS/nNOS             115

## Input Please report the recorded Selectivity eNOS/nNOS for CN(C)CCN1CCc2cc(NC(=N)c3cccs3)ccc21 [Example 68] .
## Output 316

* * *

// reported pIC50 per item
target_or_system: Recombinant human inducible NOS (iNOS) (Homo sapiens)
Sequence (P35228 whole entry): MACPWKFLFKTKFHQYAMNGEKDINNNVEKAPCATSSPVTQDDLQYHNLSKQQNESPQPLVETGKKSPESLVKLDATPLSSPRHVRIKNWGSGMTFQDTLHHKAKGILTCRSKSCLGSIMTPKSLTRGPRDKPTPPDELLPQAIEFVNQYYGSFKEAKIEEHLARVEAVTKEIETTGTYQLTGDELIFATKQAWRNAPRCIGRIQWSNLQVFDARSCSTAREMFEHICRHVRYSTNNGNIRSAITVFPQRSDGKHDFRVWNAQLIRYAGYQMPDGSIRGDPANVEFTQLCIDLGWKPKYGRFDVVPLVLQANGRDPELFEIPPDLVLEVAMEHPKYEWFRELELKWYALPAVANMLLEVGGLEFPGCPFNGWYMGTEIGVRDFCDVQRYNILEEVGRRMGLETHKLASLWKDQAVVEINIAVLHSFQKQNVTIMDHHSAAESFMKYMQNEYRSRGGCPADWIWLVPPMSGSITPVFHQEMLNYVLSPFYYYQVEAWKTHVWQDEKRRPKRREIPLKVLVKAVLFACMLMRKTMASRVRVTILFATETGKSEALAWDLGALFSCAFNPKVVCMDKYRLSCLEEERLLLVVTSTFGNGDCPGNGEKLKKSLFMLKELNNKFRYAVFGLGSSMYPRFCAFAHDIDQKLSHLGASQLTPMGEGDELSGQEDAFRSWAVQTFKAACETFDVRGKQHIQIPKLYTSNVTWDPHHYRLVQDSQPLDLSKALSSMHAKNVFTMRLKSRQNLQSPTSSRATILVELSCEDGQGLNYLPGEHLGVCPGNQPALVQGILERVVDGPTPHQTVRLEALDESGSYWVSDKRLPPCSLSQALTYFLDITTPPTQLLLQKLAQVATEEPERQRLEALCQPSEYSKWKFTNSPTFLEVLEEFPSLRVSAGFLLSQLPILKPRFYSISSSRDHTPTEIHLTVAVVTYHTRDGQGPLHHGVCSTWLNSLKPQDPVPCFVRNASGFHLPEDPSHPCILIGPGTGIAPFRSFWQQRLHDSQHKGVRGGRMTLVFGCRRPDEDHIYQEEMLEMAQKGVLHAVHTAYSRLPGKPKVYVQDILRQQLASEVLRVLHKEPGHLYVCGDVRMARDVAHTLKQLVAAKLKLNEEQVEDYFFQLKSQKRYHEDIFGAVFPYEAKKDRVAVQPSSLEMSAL
experimental_details: Human iNOS enzyme assay, radiometric
Format: biochemical
measurement_context: hiNOS IC50
pIC50: −log10 of the molar value.

>>> df
                                   compound  reported_value
0  CN1CCC(N2C(=O)CCc3cc(NC(=N)c4cccs4)ccc32)CC1          < 4.00
1  CC1C(=O)N(C2CCN(C)CC2)c2ccc(NC(=N)c3cccs3)cc21 (stereo not drawn)            4.24

Attention now shifts to the item below.
## Input Please report the recorded pIC50 for `CN1CCC(N2CCCc3cc(NC(=N)c4cccs4)ccc32)CC1` .
## Output < 4.00

* * *

target_or_system: nNOS (Rat) (Rattus norvegicus, UniProt P29476)
experimental_details: nNOS (Rat) enzyme assay
Type: biochemical
measurement_context: read-out: nNOS IC50 (rodent data in parentheses)
// reported IC50 per item
Quick note: give the figure in nM, leave out the unit.

Record excerpt, results attached:
>>> df
                                   molecule  reported_value
0  CN(C)CCN1C(=O)CCc2cc(NC(=N)c3cccs3)ccc21 [Example 3]             210
1  CN1CCCC1CCN1CCCc2cc(NC(=N)c3cccs3)ccc21 (single isomer, unassigned) [Example 24]             120

## Input Please report the recorded IC50 for CN1CCCC1CCN1CCCc2cc(NC(=N)c3cccs3)ccc21 (stereo not drawn) [Example 14] .
## Output 170

* * *

target_or_system: UniProtKB P29476
experimental_details: nNOS (Rat) enzyme assay
Format: biochemical
measurement_context: rat nNOS; values in parentheses; read-out: nNOS IC50 (rodent data in parentheses)
Structures can show the parent of a compound that is named as a salt.
// reported pIC50 per item
pIC50 here is simply -log10 of the concentration when that concentration is written in mol/L.

>>> df
                                   molecule  reported_value
0  Cl.Cl.N=C(Nc1ccc2c(c1)CCCN2CCN1CCCC1)c1cccs1 [Example 12, dihydrochloride]            5.72

## Input Please report the recorded pIC50 for N=C(Nc1ccc2c(c1)CCCCN2CCN1CCCC1)c1cccs1 [Example 27] .
## Output 7.04

## Input Please report the recorded pIC50 for N=C(Nc1ccc2c(c1)CCCN2C1CCNC1)c1cccs1 (stereo not shown) [Example 29, dihydrochloride] .
## Output 6.82

## Input Please report the recorded pIC50 for CN(C)CCN1CCCc2ccc(NC(=N)c3cccs3)cc21 [Example 32] .
## Output 6.03

* * *

target_or_system: Nitric oxide synthase (neuronal, human recombinant) nNOS (Homo sapiens)
experimental_details: Human nNOS enzyme assay ([3H]L-arginine to [3H]L-citrulline)
Assay type: biochemical
measurement_context: read-out: hnNOS IC50
measured_metric: IC50

Record excerpt, results attached:
>>> df
                                   compound  reported_value
0  CN(C)CCN1C(=O)CCc2cc(NC(=N)c3cccs3)ccc21         0.58 µM
1  CN1CCC(N2CCCCc3cc(NC(=N)c4cccs4)ccc32)C1 (stereo not shown)         0.08 µM

## Input Please report the recorded IC50 for `N=C(Nc1ccc2c(c1)CCC(=O)N2CCN1CCCCC1)c1cccs1` .
## Output 0.78 µM

## Input Please report the recorded IC50 for `CN1CCC(N2CCCCc3cc(NC(=N)c4cccs4)ccc32)CC1` .
## Output 2.96 µM

* * *

target_or_system: Nitric oxide synthase (neuronal, human recombinant) nNOS (Homo sapiens)
experimental_details: Human nNOS enzyme assay ([3H]L-arginine to [3H]L-citrulline)
Type: biochemical
measurement_context: human enzymes; ratio of eNOS IC50 to nNOS IC50
Label Yes when Selectivity eNOS/nNOS is strictly below 200; otherwise label No.

The examples below pair each entry with its known result.
>>> df
                                   compound                          target_or_system  cat
0      CN(C)CCN1CCCc2ccc(NC(=N)c3cccs3)cc21  Nitric oxide synthase (neuronal, human recombinant) nNOS (Homo sapiens)  Yes
1  CNCCN1CCCc2cc(NC(=N)c3cccs3)cc(F)c21.Cl.Cl  Nitric oxide synthase (neuronal, human recombinant) nNOS (Homo sapiens)  Yes
2     N=C(Nc1ccc2c(c1)CCN2CCN1CCCC1)c1cccs1  Nitric oxide synthase (neuronal, human recombinant) nNOS (Homo sapiens)   No

## Input Selectivity eNOS/nNOS strictly < 200 for this compound? `Cl.Cl.N=C(Nc1ccc2c(c1)CCN2C1CCNCC1)c1cccs1`
## Output Yes

## Input Selectivity eNOS/nNOS strictly < 200 for this compound? CN(C)CCCC1Cc2cc(NC(=N)c3cccs3)ccc2NC1=O.Cl.Cl (stereo not drawn)
## Output Yes

## Input Selectivity eNOS/nNOS strictly < 200 for this compound? CN1CCCC1CCN1CCCc2cc(NC(=N)c3cccs3)ccc21 (single isomer, unassigned) [Example 24]
## Output Yes

## Input Selectivity eNOS/nNOS strictly < 200 for this compound? CN1CCCC1CCN1CCCc2cc(NC(=N)c3cccs3)cc(F)c21.Cl.Cl (stereo not drawn)
## Output Yes

## Input Selectivity eNOS/nNOS strictly < 200 for this compound? CC(CN1C(=O)CCc2cc(NC(=N)c3cccs3)ccc21)N1CCCC1 (stereo not drawn)
## Output Yes

## Input Selectivity eNOS/nNOS strictly < 200 for this compound? `N=C(Nc1ccc2c(c1)CCCN2C1CCNCC1)c1cccs1`
## Output No

* * *

target_or_system: Nitric oxide synthase (neuronal, human recombinant) nNOS (Homo sapiens)
experimental_details: Human nNOS enzyme assay ([3H]L-arginine to [3H]L-citrulline)
Type: biochemical
measurement_context: human recombinant nNOS; values without parentheses; read-out: hnNOS IC50
Counter-ions that a name gives are not always drawn.
// reported pIC50 per item
pIC50 here is simply -log10 of the concentration when that concentration is written in mol/L.

                                   compound  reported_value
0  N=C(Nc1ccc2c(c1)C(C1CCNC1)C(=O)N2)c1cccs1 (stereo not drawn)            6.74
1  CN(C)CCN1CCCCc2cc(NC(=N)c3cccs3)ccc21.Cl.Cl [Example 28, dihydrochloride]            6.36
2  CN1CCC(N2CCCc3cc(NC(=N)c4cccs4)ccc32)C1 (single isomer, unassigned) [Example 56]            7.05
3  CN(C)CCCC1Cc2cc(NC(=N)c3cccs3)ccc2NC1=O.Cl.Cl (stereo not drawn) [Example 10, dihydrochloride]            6.70
4  CN1CCCC1CCN1CCCc2cc(NC(=N)c3cccs3)ccc21 (single isomer, unassigned) [Example 23]            6.59

## Input Give the reported pIC50 for `CN(C)CCN1CCc2cc(NC(=N)c3cccs3)ccc21` (system: Nitric oxide synthase (neuronal, human recombinant) nNOS (Homo sapiens)).
## Output 7.39

## Input Give the reported pIC50 for `N=C(Nc1ccc2c(c1)CCC(=O)N2CCN1CCCC1)c1cccs1` (system: Nitric oxide synthase (neuronal, human recombinant) nNOS (Homo sapiens)).
## Output 6.78

## Input Give the reported pIC50 for `CCN(CC)CCN1CCCc2cc(NC(=N)c3cccs3)ccc21` (system: Nitric oxide synthase (neuronal, human recombinant) nNOS (Homo sapiens)).
## Output 6.60

## Input Give the reported pIC50 for `CN(C)CCN1CCCc2cc(NC(=N)c3cccs3)ccc21` (system: Nitric oxide synthase (neuronal, human recombinant) nNOS (Homo sapiens)).
## Output 6.60

## Input Give the reported pIC50 for `N=C(Nc1ccc2c(c1)CCN2CCN1CCCC1)c1cccs1` (system: Nitric oxide synthase (neuronal, human recombinant) nNOS (Homo sapiens)).
## Output 7.04

## Input Give the reported pIC50 for N=C(Nc1ccc2c(c1)CCN2C1CCNC1)c1cccs1 (stereo not drawn) (system: Nitric oxide synthase (neuronal, human recombinant) nNOS (Homo sapiens)).
## Output 7.10

## Input Give the reported pIC50 for `N=C(Nc1ccc2c(c1)CCCC(=O)N2CCN1CCCCC1)c1cccs1` (system: Nitric oxide synthase (neuronal, human recombinant) nNOS (Homo sapiens)).
## Output 5.00

## Input Give the reported pIC50 for `CCN(C)CCN1CCCc2cc(NC(=N)c3cccs3)ccc21` (system: Nitric oxide synthase (neuronal, human recombinant) nNOS (Homo sapiens)).
## Output 7.05

## Input Give the reported pIC50 for `N=C(Nc1ccc2c(c1)CCC(=O)N2CCCN1CCCCC1)c1cccs1` (system: Nitric oxide synthase (neuronal, human recombinant) nNOS (Homo sapiens)).
## Output 6.10

## Input Give the reported pIC50 for N=C(Nc1ccc2c(c1)CCCN2C1CCNC1)c1cccs1 (single isomer, unassigned; (-)) [Example 65, dihydrochloride] (system: Nitric oxide synthase (neuronal, human recombinant) nNOS (Homo sapiens)).
## Output 6.51

## Input Give the reported pIC50 for `N=C(Nc1ccc2c(c1)CCC(=O)N2CCCN1CCOCC1)c1cccs1` (system: Nitric oxide synthase (neuronal, human recombinant) nNOS (Homo sapiens)).
## Output 5.26
